Origin of the recorded values: patent US20250134855A1

# Assay Protocol: Study MPKF: plasma pharmacokinetics of MDMA and MDA, single 120 mg MDMA·HCl, fasted/fed
# Format: in vivo, human
# Recorded Conditions: human, plasma, oral, 120 mg, fasted treatment group; 8 h; read-out: PK plasma concentration, Mean
Value Kind: concentration at 8 h (ng/mL)
Report the value in ng/mL with no unit label.

Data request: Item CNC(C)Cc1ccc2c(c1)OCO2 (stereo not shown) has what recorded concentration at 8 h?
Data returned: 166

* * *

# Assay Protocol: Study MPKF: plasma pharmacokinetics of MDMA and MDA, single 120 mg MDMA·HCl, fasted/fed
# Format: in vivo, human
# Recorded Conditions: human, plasma, po, 120 mg, Fasted (N = 15); 120 mg MDMA·HCl; geometric mean; read-out: T1/2 (converted)
# Protocol: The MPKF was a Phase 1, open-label, randomized sequence, multi-dose, 2-period crossover food effect study in 16 healthy individuals. The MPKF study evaluated plasma concentrations of both MDMA and the active metabolite 3,4-methylenedioxyamphetamine (MDA). […] Sample Collection: Blood samples were collected at various time points up to 72 hours after dosing. The samples were analyzed using validated liquid chromatography-tandem mass spectrometry (LC-MS/MS) methods. […]
Value Kind: half-life
A bare number is not enough; add the unit after it.

Data request: Item CC(N)Cc1ccc2c(c1)OCO2 (stereo not shown) [MDA, 3,4-methylenedioxyamphetamine] has what recorded half-life?
Data returned: 12.6 h

* * *

# Assay Protocol: Study MPKF: plasma pharmacokinetics of MDMA and MDA, single 120 mg MDMA·HCl, fasted/fed
# Format: in vivo, human
# Recorded Conditions: human, plasma, po, 120 mg, Fasted N = 15; 120 mg MDMA·HCl; preliminary; arithmetic mean
Value Kind: Vd/F (L)
Report the value in L with no unit label.

Data request: Item CNC(C)Cc1ccc2c(c1)OCO2 (stereo not shown) has what recorded Vd/F?
Data returned: 372

* * *

# Assay Protocol: Study MPKF: plasma pharmacokinetics of MDMA and MDA, single 120 mg MDMA·HCl, fasted/fed
# Assay type: in vivo, human
# Recorded Conditions: human, plasma, po, 120 mg, Fed (N = 14); 120 mg MDMA·HCl; geometric mean; read-out: T1/2 (converted)
Value Kind: half-life (h)
Report the value in h with no unit label.

Data request: Item CC(N)Cc1ccc2c(c1)OCO2 (stereo not shown) has what recorded half-life?
Data returned: 12.8

* * *

# Assay Protocol: Study MPKF: plasma pharmacokinetics of MDMA and MDA, single 120 mg MDMA·HCl, fasted/fed
# Format: in vivo, human
# Recorded Conditions: human, plasma, po; single 120 mg dose of MDMA·HCl, fasting; median; read-out: Tmax
# Experimental: The MPKF was a Phase 1, open-label, randomized sequence, multi-dose, 2-period crossover food effect study in 16 healthy individuals. The MPKF study evaluated plasma concentrations of both MDMA and the active metabolite 3,4-methylenedioxyamphetamine (MDA). […] Sample Collection: Blood samples were collected at various time points up to 72 hours after dosing. The samples were analyzed using validated liquid chromatography-tandem mass spectrometry (LC-MS/MS) methods. […]
Value Kind: Tmax

Data request: Item CNC(C)Cc1ccc2c(c1)OCO2 (stereo not shown) has what recorded Tmax?
Data returned: ≤ 2 h

* * *

# Assay Protocol: Study MPKF: plasma pharmacokinetics of MDMA and MDA, single 120 mg MDMA·HCl, fasted/fed
# Type: in vivo, human
# Recorded Conditions: human, plasma, oral, 120 mg, fed treatment group; 12 h; read-out: PK plasma concentration, Geom. Mean
# Description: The MPKF was a Phase 1, open-label, randomized sequence, multi-dose, 2-period crossover food effect study in 16 healthy individuals. The MPKF study evaluated plasma concentrations of both MDMA and the active metabolite 3,4-methylenedioxyamphetamine (MDA). […] Sample Collection: Blood samples were collected at various time points up to 72 hours after dosing. The samples were analyzed using validated liquid chromatography-tandem mass spectrometry (LC-MS/MS) methods. […]
Value Kind: concentration at 12 h (ng/mL)
Report the value in ng/mL with no unit label.

Data request: Item CNC(C)Cc1ccc2c(c1)OCO2 (stereo not shown) has what recorded concentration at 12 h?
Data returned: 120
